- assay target: Adenylate cyclase type 1 (Homo sapiens, UniProt Q08828)
- test protocol: Maximum stimulation activity measured with 100 uM forskolin mediated by adenylate cyclase 1
- Assay type: functional
- Sequence (Q08828 whole entry, looked up): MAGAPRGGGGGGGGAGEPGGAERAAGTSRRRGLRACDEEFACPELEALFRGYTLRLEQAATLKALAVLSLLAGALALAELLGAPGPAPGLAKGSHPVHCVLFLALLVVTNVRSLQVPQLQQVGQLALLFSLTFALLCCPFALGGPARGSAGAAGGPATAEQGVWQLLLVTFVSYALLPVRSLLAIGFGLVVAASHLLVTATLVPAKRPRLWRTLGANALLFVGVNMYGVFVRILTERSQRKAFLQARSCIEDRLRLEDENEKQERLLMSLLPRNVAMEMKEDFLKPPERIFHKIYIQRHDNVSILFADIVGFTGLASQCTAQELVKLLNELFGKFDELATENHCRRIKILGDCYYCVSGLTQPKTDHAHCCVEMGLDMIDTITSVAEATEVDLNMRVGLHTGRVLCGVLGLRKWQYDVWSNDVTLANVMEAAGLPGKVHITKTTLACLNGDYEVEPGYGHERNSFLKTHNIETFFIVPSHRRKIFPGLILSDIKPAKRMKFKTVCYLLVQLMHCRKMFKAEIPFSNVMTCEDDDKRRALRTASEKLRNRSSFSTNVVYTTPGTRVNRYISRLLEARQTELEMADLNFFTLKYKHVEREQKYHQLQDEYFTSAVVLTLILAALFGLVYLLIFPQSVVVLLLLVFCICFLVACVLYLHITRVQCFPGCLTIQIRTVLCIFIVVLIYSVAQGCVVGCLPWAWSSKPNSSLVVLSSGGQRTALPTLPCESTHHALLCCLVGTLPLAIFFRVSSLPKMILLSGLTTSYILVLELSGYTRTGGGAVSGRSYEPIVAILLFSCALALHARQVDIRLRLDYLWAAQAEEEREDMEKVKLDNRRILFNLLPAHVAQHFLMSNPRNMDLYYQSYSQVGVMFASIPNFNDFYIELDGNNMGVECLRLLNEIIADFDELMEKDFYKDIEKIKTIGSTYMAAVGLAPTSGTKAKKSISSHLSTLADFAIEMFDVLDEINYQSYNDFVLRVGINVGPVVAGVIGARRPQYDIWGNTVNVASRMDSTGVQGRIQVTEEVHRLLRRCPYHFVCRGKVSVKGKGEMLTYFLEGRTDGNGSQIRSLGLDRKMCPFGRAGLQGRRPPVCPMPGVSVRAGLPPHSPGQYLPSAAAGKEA
value type: Activity (%)

INSERT INTO measurements (smiles_str, assay_target, value_type, value_measured) VALUES
  ('C=C[C@@]1(C)CC(=O)[C@]2(O)[C@@]3(C)[C@@H](O)CCC(C)(C)[C@@H]3[C@H](OC(=O)NCCc3ccccn3)[C@H](OC(C)=O)[C@@]2(C)O1', 'Adenylate cyclase type 1 (Homo sapiens, UniProt Q08828)', 'Activity', 97),
  ('C=C[C@@]1(C)CC(=O)[C@]2(O)[C@@]3(C)[C@@H](O)CCC(C)(C)[C@@H]3[C@H](OC(=O)NCCc3ccc(N)cc3)[C@H](O)[C@@]2(C)O1', 'Adenylate cyclase type 1 (Homo sapiens, UniProt Q08828)', 'Activity', 83),
  ('C=C[C@@]1(C)CC(=O)[C@]2(O)[C@@]3(C)[C@@H](O)CCC(C)(C)[C@@H]3[C@H](OC(=O)NCC3CCCCC3)[C@H](O)[C@@]2(C)O1', 'Adenylate cyclase type 1 (Homo sapiens, UniProt Q08828)', 'Activity', 51);

====

Measured IC50, listed per entry.
- assay target: Adenylate cyclase type 1 (Homo sapiens, UniProt Q08828)
- test protocol: Inhibition of [125 I]6-IHPP-forskolin binding to adenylate cyclase 1
- Sequence (Q08828 whole entry): as the sequence (Q08828 whole entry, looked up) above
value type: IC50

INSERT INTO assay_data (smiles_str, value_measured) VALUES
  ('C=C[C@@]1(C)CC(=O)[C@]2(O)[C@@]3(C)[C@@H](O)CCC(C)(C)[C@@H]3[C@H](OC(=O)NCCc3ccccn3)[C@H](OC(C)=O)[C@@]2(C)O1', '21 nM'),
  ('C=C[C@@]1(C)CC(=O)[C@]2(O)[C@@]3(C)[C@@H](O)CCC(C)(C)[C@@H]3[C@H](O)[C@H](OC(=O)NCCC)[C@@]2(C)O1', '89 nM'),
  ('C=C[C@@]1(C)CC(=O)[C@]2(O)[C@@]3(C)[C@@H](O)CCC(C)(C)[C@@H]3[C@H](OC(=O)NCCc3ccc(N)cc3)[C@H](O)[C@@]2(C)O1', '162 nM');

====

- assay target: Adenylate cyclase type 1 (Homo sapiens, UniProt Q08828)
- test protocol: Ability to activate the conversion of [32P] ATP to [32P]-cyclic AMP mediated by adenylate cyclase 1
- Type: functional
Reported EC50 by item:
value type: EC50

INSERT INTO measurements (smiles_str, value_type, value_measured) VALUES
  ('C=C[C@@]1(C)CC(=O)[C@]2(O)[C@@]3(C)[C@@H](O)CCC(C)(C)[C@@H]3[C@H](OC(=O)NCC(C)C)[C@H](OC(C)=O)[C@@]2(C)O1', 'EC50', '> 2000 nM'),
  ('C=C[C@@]1(C)CC(=O)[C@]2(O)[C@@]3(C)[C@@H](O)CCC(C)(C)[C@@H]3[C@H](O)[C@H](OC(=O)NCCN3CCCCC3)[C@@]2(C)O1', 'EC50', '< 2000 nM'),
  ('C=C[C@@]1(C)CC(=O)[C@]2(O)[C@@]3(C)[C@@H](O)CCC(C)(C)[C@@H]3[C@H](OC(=O)NCCc3ccccn3)[C@H](O)[C@@]2(C)O1', 'EC50', '< 2000 nM'),
  ('C=C[C@@]1(C)CC(=O)[C@]2(O)[C@@]3(C)[C@@H](O)CCC(C)(C)[C@@H]3[C@H](O)[C@H](OC(=O)NCCC(C)(C)C)[C@@]2(C)O1', 'EC50', '> 2000 nM');
